B1: EEHEE_rd4_0003 (parent)
chain: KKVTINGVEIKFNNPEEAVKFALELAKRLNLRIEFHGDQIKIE

- Variants of: B1
- measurementNotes: folding stability dG (cDNA display proteolysis); higher = more stable
- setupConditions: PBS, room temperature
Exercise: for every item that follows, state its recorded folding stability dG.
Reply numerically in kcal/mol, unit not repeated.

Given KKVTINGVEIKFNNWEEAVKFALELAKRLNLRIEFHGDQIKIE [P15W] , state its recorded folding stability dG.
3.67

Given KPVTINGVEIKFNNPEEAVKFALELAKRLNLRIEFHGDQIKIE [K2P] , state its recorded folding stability dG.
2.2

Given KKVTINGVEIKFNNPEEAVKFALELAKRLNLRIEFHGDCIKIE [Q39C] , state its recorded folding stability dG.
3.11

Given KKVTINGVEIKFNNPEEAVKFALELAKRLNLRIEFHGDQIGIE [K41G] , state its recorded folding stability dG.
1.73

Given KKVTINGVEIKFNNPEEAVKFALELAKRLNLRIEEHGDQIKIE [F35E] , state its recorded folding stability dG.
1.63

Given KKVTINGVEIKFNNPEEAKKFALELAKRLNLRIEFHGDQIKIE [V19K] , state its recorded folding stability dG.
2.33

Given KKVTINGVEIKLNNPEEAVKFALELAKRLNLRIEFHGDQIKIE [F12L] , state its recorded folding stability dG.
1.92

Given KKVTINGVEIKFNNPEEAVKFALELEKRLNLRIEFHGDQIKIE [A26E] , state its recorded folding stability dG.
1.33

Given KKVTINGVEIKANNPEEAVKFALELAKRLNLRIEFHGDQIKIE [F12A] , state its recorded folding stability dG.
1.48

Given KKVTINGVEIKFNNPEEAVKFALELAKRLNLRIEFHGDQMKIE [I40M] , state its recorded folding stability dG.
1.92

Given KKVTINGVEIKFNNPEEAVKFALELMKRLNLRIEFHGDQIKIE [A26M] , state its recorded folding stability dG.
2.37

Given KKVTINGVEIKFNIPEEAVKFALELAKRLNLRIEFHGDQIKIE [N14I] , state its recorded folding stability dG.
2.36

Given KKVTINGVEIKFNNPEEAVKFALELAKRLNLRIEMHGDQIKIE [F35M] , state its recorded folding stability dG.
2.24

Given IKVTINGVEIKFNNPEEAVKFALELAKRLNLRIEFHGDQIKIE [K1I] , state its recorded folding stability dG.
3.3

Given KKVTINGVEIKFNNPEEAAKFALELAKRLNLRIEFHGDQIKIE [V19A] , state its recorded folding stability dG.
2.19

Given KKVTINLVEIKFNNPEEAVKFALELAKRLNLRIEFHGDQIKIE [G7L] , state its recorded folding stability dG.
2.42

Given KKVTINGVEIKFNNPEEAVKFALELAKRLNLRINFHGDQIKIE [E34N] , state its recorded folding stability dG.
2.27

Given KKVTINGVEIKFNNPEEAVKFALTLAKRLNLRIEFHGDQIKIE [E24T] , state its recorded folding stability dG.
2.43

Given KKVTINGVTIKFNNPEEAVKFALELAKRLNLRIEFHGDQIKIE [E9T] , state its recorded folding stability dG.
2.98

Given KKVTINGVEFKFNNPEEAVKFALELAKRLNLRIEFHGDQIKIE [I10F] , state its recorded folding stability dG.
2.89

Given KKVTINGVEIKFNNPEEAVKEALELAKRLNLRIEFHGDQIKIE [F21E] , state its recorded folding stability dG.
1.35

Given KKVTINGVEIKFNQPEEAVKFALELAKRLNLRIEFHGDQIKIE [N14Q] , state its recorded folding stability dG.
2.06

Given KKVTINGVEIKTNNPEEAVKFALELAKRLNLRIEFHGDQIKIE [F12T] , state its recorded folding stability dG.
1.7

Given KKVTINGVEIKFNNPEEAVKFALELAKRLNLRLEFHGDQIKIE [I33L] , state its recorded folding stability dG.
2.35

Given KKVTINGVEIKFNNPEEAVKFALELAKRLNLRIEFHIDQIKIE [G37I] , state its recorded folding stability dG.
2.35

Given KKVTINGVEIKFNNPEEAVKFALELAKRLNLRIEFHGDQIHIE [K41H] , state its recorded folding stability dG.
2.49

Given KKVTINGVEIKFNNPEEAVKFALELAKRINLRIEFHGDQIKIE [L29I] , state its recorded folding stability dG.
1.9

Given KKVTINGVEIKFNNPEEAVKFALELAKRLSLRIEFHGDQIKIE [N30S] , state its recorded folding stability dG.
2.2

Given KKVTINGVEIAFNNPEEAVKFALELAKRLNLRIEFHGDQIKIE [K11A] , state its recorded folding stability dG.
2.6

Given KKVTINGVEIKFNNPEEANKFALELAKRLNLRIEFHGDQIKIE [V19N] , state its recorded folding stability dG.
1.83

Given KKVTINGVEIKFNNPEEAVKFAEELAKRLNLRIEFHGDQIKIE [L23E] , state its recorded folding stability dG.
2.12

Given KKVTIVGVEIKFNNPEEAVKFALELAKRLNLRIEFHGDQIKIE [N6V] , state its recorded folding stability dG.
2.52

Given KKVTINGVEIKFNNPEEAVKFALELAKRLNMRIEFHGDQIKIE [L31M] , state its recorded folding stability dG.
2.67

Given KKVTINGVEIKFNNPEEAVKFALELAKRFNLRIEFHGDQIKIE [L29F] , state its recorded folding stability dG.
2.65

Given KKVTINGVEIKFNNPEEAVKFALELAKRLNLNIEFHGDQIKIE [R32N] , state its recorded folding stability dG.
2.03
